Origin of the recorded values: patent US9969742B2

Target: PDE1A (Homo sapiens, UniProt P54750)
Construct: purchased Reaction Biology Corporation, Malvern, Pa
Sequence (P54750 whole entry): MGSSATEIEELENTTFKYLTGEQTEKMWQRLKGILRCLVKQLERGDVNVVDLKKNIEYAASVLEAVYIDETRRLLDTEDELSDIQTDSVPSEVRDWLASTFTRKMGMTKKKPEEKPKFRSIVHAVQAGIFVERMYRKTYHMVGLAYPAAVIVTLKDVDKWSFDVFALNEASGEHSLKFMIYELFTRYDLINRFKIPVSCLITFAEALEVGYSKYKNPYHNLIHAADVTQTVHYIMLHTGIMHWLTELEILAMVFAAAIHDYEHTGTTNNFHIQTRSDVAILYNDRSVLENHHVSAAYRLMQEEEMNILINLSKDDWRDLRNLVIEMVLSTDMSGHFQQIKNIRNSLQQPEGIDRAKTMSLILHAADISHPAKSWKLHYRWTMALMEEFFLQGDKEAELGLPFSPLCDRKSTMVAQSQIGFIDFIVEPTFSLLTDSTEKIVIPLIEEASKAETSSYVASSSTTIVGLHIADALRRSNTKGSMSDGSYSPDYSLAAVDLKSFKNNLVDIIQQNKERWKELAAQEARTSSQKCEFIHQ
Test: Phosphodiesterase enzyme screening assay, PDE1A
Format: biochemical
Conditions: Table 1; ratio of IC50 values; value greater than 1 indicates greater selectivity for PDE9A2
Classification by PDE1A selectivity (versus PDE9A2) | ranges: zone 1 = under 100, zone 2 = from 100 up to 400, zone 3 = 400 and over

Exam item: assign CC1CN(Cc2cccc(Br)c2)CC1c1nn2c(C3CCOCC3)ncc2c(=O)[nH]1 (single isomer, unassigned; (+)) to the correct category. zone 2

Record CC1CN(Cc2cccc(C3CC3)c2)CC1c1nn2c(C3CCOCC3)ncc2c(=O)[nH]1 (single isomer, unassigned; (+)) — which class? zone 3

In plain terms, what class is CC1CN(Cc2cccnn2)CC1c1nn2c(C3CCOCC3)ncc2c(=O)[nH]1 (single isomer, unassigned; (+)) ? zone 2

Bin? CC1CN(Cc2ccc(Br)cc2)CC1c1nn2c(C3CCOCC3)ncc2c(=O)[nH]1 (single isomer, unassigned; (+)) zone 3

Returns: class label. Input: COc1ccc(F)c(CN2CC(C)C(c3nn4c(C5CCOCC5)ncc4c(=O)[nH]3)C2)c1 (single isomer, unassigned; (+)) zone 2

Assign a category based on measured PDE1A selectivity (versus PDE9A2) for CC1CN(Cc2ccc(Cl)cc2)CC1c1nn2c(C3CCC(F)(F)CC3)ncc2c(=O)[nH]1 (single isomer, unassigned; (+)) and give only the class name. zone 3

Looking at CC1CN(Cc2ccccc2)CC1c1nn2c(C3CCCOC3)ncc2c(=O)[nH]1 (single isomer, unassigned) , which class would you pick? zone 1

Into which category would you place CC1CN(Cc2ccc3ncccc3c2)CC1c1nn2c(C3CCOCC3)ncc2c(=O)[nH]1 (single isomer, unassigned; (+)) ? zone 3

State the class of the molecule shown: CC1CN(Cc2ccc[nH]c2=O)CC1c1nn2c(C3CCOCC3)ncc2c(=O)[nH]1 (single isomer, unassigned; (+)) zone 3

Classify this molecule: CC1CN(Cc2cn3ncccc3n2)CC1c1nn2c(C3CCOCC3)ncc2c(=O)[nH]1 (single isomer, unassigned; (-)) zone 1

# bin label for CC1CN(Cc2cccc(-n3cccn3)c2)CC1c1nn2c(C3CCOCC3)ncc2c(=O)[nH]1 (single isomer, unassigned; (+)) zone 3

Bin this entry: CC1CN(Cc2ccc(Cl)c(Cl)c2)CC1c1nn2c(C3CCOCC3)ncc2c(=O)[nH]1 (single isomer, unassigned; (+)) zone 3

Hi, small favor: classify CC1CN(Cc2ccc3cnccc3c2)CC1c1nn2c(C3CCOCC3)ncc2c(=O)[nH]1 (single isomer, unassigned; (+)) by its PDE1A selectivity (versus PDE9A2) when you get a moment. zone 2

Returns: class label. Input: CC1CN(Cc2cc(Cl)ccc2Cl)CC1c1nn2c(C3CCOCC3)ncc2c(=O)[nH]1 (single isomer, unassigned; (+)) zone 2

Textbook exercise: identify the category of the molecule given here, CC1CN(Cc2ccccc2)CC1c1nn2c(C3CCC(F)(F)CC3)ncc2c(=O)[nH]1 (single isomer, unassigned; (+)) , according to its measured value. zone 2

// bin(item) where item = Cc1ccccc1-c1ncc2c(=O)[nH]c(C3CN(Cc4ncccn4)CC3C)nn12 (single isomer, unassigned; (+)) zone 1

Consider CC1CN(Cc2ccccc2)CC1c1nn2c(C3CCOCC3)ncc2c(=O)[nH]1 (single isomer, unassigned; (+)) [(+)-2-((3,4-trans)-1-benzyl-4-methylpyrrolidin-3-yl)-7-(tetr] . To which PDE1A selectivity (versus PDE9A2) class does it belong? zone 1

Consider CC1CN(Cc2ccccc2C(F)(F)F)CC1c1nn2c(C3CCOCC3)ncc2c(=O)[nH]1 (single isomer, unassigned; (+)) . To which PDE1A selectivity (versus PDE9A2) class does it belong? zone 1

Which band does Cc1ncc(CN2CC(C)C(c3nn4c(C5CCOCC5)ncc4c(=O)[nH]3)C2)cn1 (single isomer, unassigned; (+)) fall in? zone 1

Lab note: which band did CC(=O)N1CCC(c2ncc3c(=O)[nH]c(C4CN(Cc5ccccc5)CC4C)nn23)CC1 (single isomer, unassigned; (+)) land in? zone 2

Quick check: band for Cc1nccc(CN2CC(C)C(c3nn4c(C5CCOCC5)ncc4c(=O)[nH]3)C2)n1 (single isomer, unassigned; (+)) zone 2

Sort into band: CC1CN(Cc2cccc(OC(F)(F)F)c2)CC1c1nn2c(C3CCOCC3)ncc2c(=O)[nH]1 (single isomer, unassigned; (+)) zone 2

Class (by measured PDE1A selectivity (versus PDE9A2)) for CC1CN(Cc2ccccc2N(C)C)CC1c1nn2c(C3CCOCC3)ncc2c(=O)[nH]1 (single isomer, unassigned; (+)) zone 2

Which of the defined bands does the recorded PDE1A selectivity (versus PDE9A2) of CC1CN(Cc2cccc(N3CCCC3)c2)CC1c1nn2c(C3CCOCC3)ncc2c(=O)[nH]1 (single isomer, unassigned; (+)) sit within? zone 3

Lab log: CC1CN(C(=O)c2ccc(C#N)cc2)CC1c1nn2c(C3CCOCC3)ncc2c(=O)[nH]1 (single isomer, unassigned; (-)) — assign PDE1A selectivity (versus PDE9A2) category zone 1

// bin(item) where item = CC1CN(C(C)c2ccccc2)CC1c1nn2c(C3CCOCC3)ncc2c(=O)[nH]1 (single isomer, unassigned; (+)) [(+)-2-((3,4-trans)-4-methyl-1-((S)-1-phenylethyl)pyrrolidin-] zone 1
